Provenance of the data: ChEMBL document CHEMBL2163297

# TARGET DESC: UniProtKB P08684
# Sequence (P08684 whole entry): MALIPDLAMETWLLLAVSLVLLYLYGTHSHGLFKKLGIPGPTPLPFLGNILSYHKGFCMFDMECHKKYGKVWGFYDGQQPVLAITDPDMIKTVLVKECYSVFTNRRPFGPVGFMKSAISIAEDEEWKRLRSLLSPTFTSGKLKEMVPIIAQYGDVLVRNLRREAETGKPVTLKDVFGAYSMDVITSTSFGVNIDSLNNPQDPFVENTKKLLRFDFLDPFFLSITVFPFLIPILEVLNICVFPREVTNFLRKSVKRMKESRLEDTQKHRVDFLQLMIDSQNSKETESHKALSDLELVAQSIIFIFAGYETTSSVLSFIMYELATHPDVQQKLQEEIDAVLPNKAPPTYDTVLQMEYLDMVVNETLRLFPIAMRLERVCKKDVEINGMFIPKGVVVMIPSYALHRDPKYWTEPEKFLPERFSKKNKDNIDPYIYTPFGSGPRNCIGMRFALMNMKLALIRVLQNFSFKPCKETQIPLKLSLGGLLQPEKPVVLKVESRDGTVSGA
# MEASUREMENT PROTOCOL: Time dependent inhibition of CYP3A4 in human liver microsomes preincubated for 30 mins
pIC50: −log10 of the molar value.
For each of the compounds below, state its pIC50.

Cc1nc2ccccc2n1-c1nc(N2CCOCC2)c2sc(CN3CCN(C(C)(C)C(N)=O)CC3)cc2n1    < 5.00
CCc1nc2ccccc2n1-c1nc(N2CCOCC2)c2sc(CN3CCN(S(C)(=O)=O)CC3)cc2n1    < 5.00

Return pIC50 (reported value) for this compound: Cc1nc2ccccc2n1-c1nc(N2CCOCC2)c2sc(CN3CCC(N(C)C)CC3)cc2n1 < 5.00

----------
For each of the compounds below, state its Ratio IC50.
# MEASUREMENT PROTOCOL: Selectivity ratio of IC50 for PI3Kalpha to IC50 for PI3Kdelta
One number for each entry.

Here is how some compounds turned out for Ratio IC50.
CN(C)C1CCN(Cc2cc3nc(-c4c[nH]c5ccccc45)nc(N4CCOCC4)c3s2)CC1    88
CC(C)(C(N)=O)N1CCN(Cc2cc3nc(-c4cc(C#N)cc5[nH]ccc45)nc(N4CCOCC4)c3s2)CC1    208
Fc1ccc2[nH]ccc2c1-c1nc(N2CCOCC2)c2sc(CN3CCN4CCOC[C@H]4C3)cc2n1    42
CN(C)C1CCN(Cc2cc3nc(-n4ccc5ccccc54)nc(N4CCOCC4)c3s2)CC1    54
CS(=O)(=O)N1CCN(Cc2cc3nc(-c4cccc5[nH]ccc45)nc(N4CCOCC4)c3s2)CC1    22
CN(C)C1CCN(Cc2cc3nc(-c4cccc5c4CC(=O)N5)nc(N4CCOCC4)c3s2)CC1    8
Cc1nc2ccccc2n1-c1nc(N2CCOCC2)c2sc(CN3CCC(N(C)C)CC3)cc2n1    29

Return Ratio IC50 (reported value) for this compound: CC(C)(C(N)=O)N1CCN(Cc2cc3nc(-c4c(F)ccc5[nH]ccc45)nc(N4CCOCC4)c3s2)CC1 194

----------
For each of the compounds below, state its Ratio IC50.
# MEASUREMENT PROTOCOL: Selectivity ratio of IC50 for PI3Kbeta to IC50 for PI3Kdelta
One number for each entry.

Here is how some compounds turned out for Ratio IC50.
Fc1ccc2[nH]ccc2c1-c1nc(N2CCOCC2)c2sc(CN3CCN4CCOC[C@H]4C3)cc2n1    69
Cc1nc2ccccc2n1-c1nc(N2CCOCC2)c2sc(CN3CCN(C(C)(C)C(N)=O)CC3)cc2n1    111
CS(=O)(=O)N1CCN(Cc2cc3nc(-c4cccc5[nH]ccc45)nc(N4CCOCC4)c3s2)CC1    25
CC(C)(C(N)=O)N1CCN(Cc2cc3nc(-c4c(F)cc(F)c5[nH]ccc45)nc(N4CCOCC4)c3s2)CC1    137

Need Ratio IC50 for each of these compounds.
1. CC(C)(C(N)=O)N1CCN(Cc2cc3nc(-c4cc(F)cc5[nH]ccc45)nc(N4CCOCC4)c3s2)CC1
2. CC(C)(C(N)=O)N1CCN(Cc2cc3nc(-c4nccc5[nH]ccc45)nc(N4CCOCC4)c3s2)CC1

1: 80; 2: 46
